FYI, the data here is from ChEMBL document CHEMBL1201861.

# Test system: MHH-NB-11;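 note: growth inhibition of human MHH-NB-11 cells, read out by a cell viability assay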
# experimental-details: cells
# Format: functional, cell-based, Homo sapiens
# settings: mhh-nb-11
# Description: SANGER: Inhibition of human MHH-NB-11 cell growth in a cell viability assay.
Where a SMILES comes first, the peptide text is derived from it. The star is where a group is joined. Cbz = O=C(OCc1ccccc1)*
measured-metric: IC50

Short answer for CC(C)C[C@@H](C=O)NC(=O)[C@H](CC(C)C)NC(=O)[C@H](CC(C)C)NC(=O)OCc1ccccc1 [MG-132] (Cbz-Leu-Leu-Leu-aldehyde) : IC50 was > 1 µM

###

# Test system: NCI-H1623;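 note: cell viability assay used as the read-out for growth inhibition of NCI-H1623 cells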
# experimental-details: cells
# Type: functional, cell-based
# settings: Homo sapiens
# Description: SANGER: Inhibition of human NCI-H1623 cell growth in a cell viability assay.
pIC50: −log10 of the molar value.
measured-metric: pIC50

Record O=C(NCCCNc1nc(Nc2cccc(NC(=O)N3CCCC3)c2)ncc1I)c1cccs1 has NCI-H1623 pIC50 equal to < 5.30

Record CC1=C(/C=C/C(C)=C/C=C/C(C)=C/C(=O)O)C(C)(C)CCC1 has NCI-H1623 pIC50 equal to < 5.00

Record NC(=O)Nc1cc(-c2cccc(F)c2)sc1C(=O)N[C@H]1CCCNC1 has NCI-H1623 pIC50 equal to < 5.70

Record NC(=O)c1ccc(N(C(N)=O)c2c(F)cccc2F)nc1-c1ccc(F)cc1F has NCI-H1623 pIC50 equal to < 5.70

Record OC[C@H](Cc1ccccc1)Nc1nc(Oc2ccc3c(c2)CCC3)nc2c1ncn2Cc1ccc(-c2ccccc2)cc1 has NCI-H1623 pIC50 equal to < 4.99

###

# System: NB5;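 note: growth inhibition of NB5 cells, read out as cell viability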
# experimental-details: cells
# Type: functional, cell-based, Homo sapiens
# settings: Homo sapiens, NB5
# Description: SANGER: Inhibition of human NB5 cell growth in a cell viability assay.
Would you mind telling me the reported pIC50 of each entry?
Please express pIC50 as -log10 of the molar concentration.

Short answer for Cc1cc(N2CCOCC2)cc2[nH]c(-c3c(NC[C@@H](O)c4cccc(Cl)c4)cc[nH]c3=O)nc12 : pIC50 was 5.95

Short answer for CC(C)C[C@H](NC(=O)[C@H](Cc1ccccc1)NC(=O)c1cnccn1)B(O)O : pIC50 was 8.64

Short answer for Nc1ccccc1NC(=O)c1ccc(CNC(=O)OCc2cccnc2)cc1 : pIC50 was 5.78

###

Would you mind telling me the reported IC50 of each entry?
# System: ChaGo-K-1;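 note: growth inhibition of ChaGo-K-1 cells, read out with a cell viability assay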
# experimental-details: cells
# Type: functional, cell-based
# settings: Homo sapiens
# Description: SANGER: Inhibition of human ChaGo-K-1 cell growth in a cell viability assay.

Short answer for CC1=C(/C=C/C(C)=C/C=C/C(C)=C/C(=O)O)C(C)(C)CCC1 : IC50 was > 10 µM

Short answer for CS(=O)(=O)N1CCN(Cc2cc3nc(-c4cccc5[nH]ncc45)nc(N4CCOCC4)c3s2)CC1 : IC50 was > 4 µM

Short answer for OC[C@H](Cc1ccccc1)Nc1nc(Oc2ccc3c(c2)CCC3)nc2c1ncn2Cc1ccc(-c2ccccc2)cc1 : IC50 was > 10.2 µM

Short answer for O=S(=O)(O)c1ccc2cc(/N=N/c3cc(S(=O)(=O)O)c4cccnc4c3O)ccc2c1 : IC50 was > 16 µM

###

# System: SCC-25;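 note: growth inhibition of SCC-25 cells, measured with a cell viability assay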
# experimental-details: cells
# Assay type: functional, cell-based
# settings: Homo sapiens
# Description: SANGER: Inhibition of human SCC-25 cell growth in a cell viability assay.
Would you mind telling me the reported IC50 of each entry?

Record O=C(NCCCNc1nc(Nc2cccc(NC(=O)N3CCCC3)c2)ncc1I)c1cccs1 has SCC-25 IC50 equal to > 5 µM

Record O=S(=O)(O)c1ccc2cc(/N=N/c3cc(S(=O)(=O)O)c4cccnc4c3O)ccc2c1 has SCC-25 IC50 equal to > 16 µM

Record NC(=O)c1ccc(N(C(N)=O)c2c(F)cccc2F)nc1-c1ccc(F)cc1F has SCC-25 IC50 equal to > 2 µM

Record CN(C)CCOc1ccc(-c2nc(-c3ccncc3)c(-c3ccc4c(c3)CC/C4=N\O)[nH]2)cc1 has SCC-25 IC50 equal to > 5 µM

Record OC[C@H](Cc1ccccc1)Nc1nc(Oc2ccc3c(c2)CCC3)nc2c1ncn2Cc1ccc(-c2ccccc2)cc1 has SCC-25 IC50 equal to > 10.2 µM

Record COC(=O)[C@H](CCSC)NC(=O)c1ccc(NC[C@@H](N)CS)cc1-c1ccccc1 has SCC-25 IC50 equal to > 1.02 µM

###

# System: MRK-nu-1;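 note: cell viability assay measuring growth suppression of human MRK-nu-1 cells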
# experimental-details: cells
# Type: functional, cell-based, Homo sapiens
# settings: Homo sapiens, MRK-nu-1
# Description: SANGER: Inhibition of human MRK-nu-1 cell growth in a cell viability assay.
Would you mind telling me the reported IC50 of each entry?

Short answer for COc1ccc(-c2cc3nccn3c(Nc3ncccc3C(N)=O)n2)cc1OC : IC50 was 2.91 µM

Short answer for Cc1ccc(C(=O)Nc2ccc(CN3CCN(C)CC3)c(C(F)(F)F)c2)cc1C#Cc1cnc2cccnn12 : IC50 was > 0.512 µM

Short answer for Cc1ccc(NC(=O)c2ccc(CN3CCN(C)CC3)cc2)cc1Nc1nccc(-c2cccnc2)n1 : IC50 was > 2 µM

Short answer for CCCCCCCCCCCC1=C(O)C(=O)C=C(O)C1=O : IC50 was 12.9 µM

Short answer for C=CC(=O)N1CCCC(Nc2nc(Nc3ccc(N(C)C(=O)CC)cc3)nc3[nH]cnc23)C1 (configuration not stated) : IC50 was > 10.2 µM

Short answer for OC[C@H](Cc1ccccc1)Nc1nc(Oc2ccc3c(c2)CCC3)nc2c1ncn2Cc1ccc(-c2ccccc2)cc1 : IC50 was > 10.2 µM

Short answer for C/C(=C\c1csc(C)n1)[C@@H]1C[C@@H]2O[C@]2(C)CCC[C@H](C)[C@H](O)[C@@H](C)C(=O)C(C)(C)[C@@H](O)CC(=O)O1 : IC50 was 0.0009 µM

###

Would you mind telling me the reported pIC50 of each entry?
# Test system: M14
# experimental-details: cells
# Assay type: functional, cell-based
# settings: Homo sapiens
# Description: SANGER: Inhibition of human M14 cell growth in a cell viability assay.
pIC50: −log10 of the molar value.

Short answer for C/C(=C\c1csc(C)n1)[C@@H]1C[C@@H]2O[C@]2(C)CCC[C@H](C)[C@H](O)[C@@H](C)C(=O)C(C)(C)[C@@H](O)CC(=O)O1 : pIC50 was < 7.49

Short answer for NC1(c2ccc(-c3nc4ccn5c(=O)[nH]nc5c4cc3-c3ccccc3)cc2)CCC1 : pIC50 was < 5.40

Short answer for O=S(=O)(O)c1ccc2cc(/N=N/c3cc(S(=O)(=O)O)c4cccnc4c3O)ccc2c1 : pIC50 was < 4.80

###

# Tested on: HCC1599;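 note: growth inhibition of HCC1599 cells, read out in a cell viability assay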
# experimental-details: cells
# Type: functional, cell-based, Homo sapiens
# settings: Homo sapiens, HCC1599
# Description: SANGER: Inhibition of human HCC1599 cell growth in a cell viability assay.
measured-metric: IC50

Short answer for C=CC(=O)N1CCCC(Nc2nc(Nc3ccc(N(C)C(=O)CC)cc3)nc3[nH]cnc23)C1 (centres undefined) : IC50 was > 10200 nM

Short answer for COc1cc(N2CCC(N3CCN(C)CC3)CC2)ccc1Nc1ncc(Cl)c(Nc2ccccc2S(=O)(=O)C(C)C)n1 : IC50 was > 2000 nM

Short answer for NC(=O)c1cccc(-c2cc(Nc3ccc(OC(F)(F)F)cc3)ncn2)c1 : IC50 was > 1280 nM

Short answer for COC(=O)[C@H](CCSC)NC(=O)c1ccc(NC[C@@H](N)CS)cc1-c1ccccc1 : IC50 was > 1020 nM

###

Would you mind telling me the reported pIC50 of each entry?
# Tested on: CA46
# experimental-details: cells
# Format: functional, cell-based, Homo sapiens
# settings: Homo sapiens, CA46
# Description: SANGER: Inhibition of human CA46 cell growth in a cell viability assay.
pIC50: −log10 of the molar value.

Record COC(=O)[C@H](CCSC)NC(=O)c1ccc(NC[C@@H](N)CS)cc1-c1ccccc1 has CA46 pIC50 equal to < 5.99

Record CCCCCCCCCCCC1=C(O)C(=O)C=C(O)C1=O has CA46 pIC50 equal to 4.73

Record OC[C@H](Cc1ccccc1)Nc1nc(Oc2ccc3c(c2)CCC3)nc2c1ncn2Cc1ccc(-c2ccccc2)cc1 has CA46 pIC50 equal to < 4.99

###

# System: KLE
# experimental-details: cells
# Format: functional, cell-based
# settings: Homo sapiens
# Description: SANGER: Inhibition of human KLE cell growth in a cell viability assay.
Where a SMILES comes first, the peptide text is derived from it. The star is where a group is joined. Cbz = O=C(OCc1ccccc1)*
measured-metric: IC50 (nM)
The response must be a number in nM with no trailing unit.

Short answer for COc1ccc(N(C(=O)Oc2c(C)cccc2C)c2ccnc(Nc3ccc(N4CCN(C)CC4)cc3)n2)c(OC)c1 : IC50 was 1860

Short answer for CC(C)C[C@@H](C=O)NC(=O)[C@H](CC(C)C)NC(=O)[C@H](CC(C)C)NC(=O)OCc1ccccc1 [MG-132] (Cbz-Leu-Leu-Leu-aldehyde) : IC50 was 313

###

# Test system: ALL-PO
# experimental-details: cells
# Format: functional, cell-based, Homo sapiens
# settings: Homo sapiens, ALL-PO
# Description: SANGER: Inhibition of human ALL-PO cell growth in a cell viability assay.
pIC50: −log10 of the molar value.
measured-metric: pIC50

Short answer for CS(=O)(=O)N1CCN(Cc2cc3nc(-c4cccc5[nH]ncc45)nc(N4CCOCC4)c3s2)CC1 [PICTILISIB] : pIC50 was < 5.40

Short answer for O=S(=O)(O)c1ccc2cc(/N=N/c3cc(S(=O)(=O)O)c4cccnc4c3O)ccc2c1 : pIC50 was < 4.80

Short answer for CC(C)C[C@H](NC(=O)[C@H](Cc1ccccc1)NC(=O)c1cnccn1)B(O)O [BORTEZOMIB] : pIC50 was < 7.70

Short answer for COC(=O)[C@H](CCSC)NC(=O)c1ccc(NC[C@@H](N)CS)cc1-c1ccccc1 : pIC50 was < 5.99
